STUDY_TARGET: RXRγ (Homo sapiens)
Sequence (P48443 whole entry): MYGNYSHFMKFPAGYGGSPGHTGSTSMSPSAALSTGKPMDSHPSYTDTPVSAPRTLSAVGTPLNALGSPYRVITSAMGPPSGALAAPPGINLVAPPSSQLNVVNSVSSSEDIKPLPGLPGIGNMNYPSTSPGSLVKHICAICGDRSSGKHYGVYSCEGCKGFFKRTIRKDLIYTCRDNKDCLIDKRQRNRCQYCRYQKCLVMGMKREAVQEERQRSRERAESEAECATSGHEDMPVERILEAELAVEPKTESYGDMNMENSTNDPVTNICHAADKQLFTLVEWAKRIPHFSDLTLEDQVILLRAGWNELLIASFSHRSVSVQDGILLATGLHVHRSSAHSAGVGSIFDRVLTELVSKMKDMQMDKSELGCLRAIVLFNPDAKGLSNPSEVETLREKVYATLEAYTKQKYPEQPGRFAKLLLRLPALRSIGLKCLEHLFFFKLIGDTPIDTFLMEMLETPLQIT
MEASUREMENT_NOTES: holoreceptor transactivation assay, RXRγ
CONDITION_NOTES: holoreceptor assay; read-out: RXR Trans. EC50 γ
pEC50: −log10 of the molar value.
RECORDED_ENDPOINT: pEC50

>>> test_value("CCOc1cc2c(cc1\\C(CC)=C(F)/C=C/C(C)=C(\\F)C(=O)O)C(C)(C)CCC2(C)C")
8.52
>>> test_value("CC/C(=C(F)/C=C/C(C)=C(\\F)C(=O)O)c1cc2c(cc1OCOC)C(C)(C)CCC2(C)C")
8.10

----------
STUDY_TARGET: RXRβ (Homo sapiens, UniProt P28702)
Construct: expressed in transfected cells
Sequence (P28702 whole entry): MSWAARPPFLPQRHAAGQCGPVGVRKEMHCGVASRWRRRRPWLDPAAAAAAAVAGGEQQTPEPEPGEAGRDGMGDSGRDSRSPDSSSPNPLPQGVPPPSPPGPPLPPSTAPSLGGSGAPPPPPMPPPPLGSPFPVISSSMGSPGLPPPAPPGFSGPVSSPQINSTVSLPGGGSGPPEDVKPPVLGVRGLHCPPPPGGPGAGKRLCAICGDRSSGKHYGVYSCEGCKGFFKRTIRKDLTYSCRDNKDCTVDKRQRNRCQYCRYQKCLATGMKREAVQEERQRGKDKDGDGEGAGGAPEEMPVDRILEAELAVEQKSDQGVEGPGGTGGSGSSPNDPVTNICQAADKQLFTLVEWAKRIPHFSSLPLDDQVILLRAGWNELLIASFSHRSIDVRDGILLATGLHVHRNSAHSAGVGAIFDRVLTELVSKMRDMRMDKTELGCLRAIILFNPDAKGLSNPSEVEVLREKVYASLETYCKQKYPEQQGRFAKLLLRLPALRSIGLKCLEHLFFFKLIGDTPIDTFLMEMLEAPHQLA
MEASUREMENT_NOTES: holoreceptor transactivation assay, RXRβ
Type: cell-based
CONDITION_NOTES: efficacy as a percentage compared to the standard compound
RECORDED_ENDPOINT: RXR Trans. efficacy β (%)

>>> test_value("CCCOc1cc2c(cc1\\C(C)=C(F)/C=C/C(C)=C(\\F)C(=O)O)C(C)(C)CCC2(C)C")
24
>>> test_value("CC(/C=C/[C@@H]1C[C@]1(C)c1ccc2c(c1)C(C)(C)CCC2(C)C)=C\\C(=O)O")
100
>>> test_value("CC/C(=C(F)/C=C/C(C)=C(\\F)C(=O)O)c1cc2c(cc1OCOC)C(C)(C)CCC2(C)C")
45
>>> test_value("CCOc1cc2c(cc1\\C(CC)=C(F)/C=C/C(C)=C(\\F)C(=O)O)C(C)(C)CCC2(C)C")
43

----------
STUDY_TARGET: RARβ (Homo sapiens)
Sequence (P10826 183-417 limits assumed): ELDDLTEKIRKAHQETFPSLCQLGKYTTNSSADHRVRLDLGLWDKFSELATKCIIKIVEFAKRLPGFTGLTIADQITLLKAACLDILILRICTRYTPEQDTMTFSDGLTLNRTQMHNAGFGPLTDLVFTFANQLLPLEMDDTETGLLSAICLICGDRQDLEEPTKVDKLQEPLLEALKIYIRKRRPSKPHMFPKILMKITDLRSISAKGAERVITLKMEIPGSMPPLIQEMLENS
MEASUREMENT_NOTES: chimeric receptor transactivation assay, RARβ
CONDITION_NOTES: chimeric assay; read-out: RAR Trans. EC50 β
RECORDED_ENDPOINT: EC50

>>> test_value("CCOc1cc2c(cc1\\C(CC)=C(F)/C=C/C(C)=C(\\F)C(=O)O)C(C)(C)CCC2(C)C")
"95 nM"
>>> test_value("CC/C(=C(F)/C=C/C(C)=C(\\F)C(=O)O)c1cc2c(cc1OCOC)C(C)(C)CCC2(C)C")
"170 nM"
>>> test_value("CCCOc1cc2c(cc1\\C(C)=C(F)/C=C/C(C)=C(\\F)C(=O)O)C(C)(C)CCC2(C)C")
"> 1000 nM"

----------
STUDY_TARGET: RARγ (Homo sapiens)
Sequence (P13631 185-419 limits assumed): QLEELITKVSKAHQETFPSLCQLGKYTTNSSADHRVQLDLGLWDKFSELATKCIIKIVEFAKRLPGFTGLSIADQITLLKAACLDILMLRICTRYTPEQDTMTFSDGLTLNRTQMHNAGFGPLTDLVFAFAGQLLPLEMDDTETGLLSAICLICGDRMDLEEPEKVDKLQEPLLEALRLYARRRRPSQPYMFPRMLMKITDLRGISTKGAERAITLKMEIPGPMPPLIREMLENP
MEASUREMENT_NOTES: chimeric receptor transactivation assay, RARγ
CONDITION_NOTES: chimeric assay; read-out: RAR Trans. EC50 γ
pEC50: −log10 of the molar value.
RECORDED_ENDPOINT: pEC50

>>> test_value("CCCOc1cc2c(cc1\\C(C)=C(F)/C=C/C(C)=C(\\F)C(=O)O)C(C)(C)CCC2(C)C")
6.74
